Target: HDAC 6 (Homo sapiens)
Sequence (Q9UBN7 whole entry): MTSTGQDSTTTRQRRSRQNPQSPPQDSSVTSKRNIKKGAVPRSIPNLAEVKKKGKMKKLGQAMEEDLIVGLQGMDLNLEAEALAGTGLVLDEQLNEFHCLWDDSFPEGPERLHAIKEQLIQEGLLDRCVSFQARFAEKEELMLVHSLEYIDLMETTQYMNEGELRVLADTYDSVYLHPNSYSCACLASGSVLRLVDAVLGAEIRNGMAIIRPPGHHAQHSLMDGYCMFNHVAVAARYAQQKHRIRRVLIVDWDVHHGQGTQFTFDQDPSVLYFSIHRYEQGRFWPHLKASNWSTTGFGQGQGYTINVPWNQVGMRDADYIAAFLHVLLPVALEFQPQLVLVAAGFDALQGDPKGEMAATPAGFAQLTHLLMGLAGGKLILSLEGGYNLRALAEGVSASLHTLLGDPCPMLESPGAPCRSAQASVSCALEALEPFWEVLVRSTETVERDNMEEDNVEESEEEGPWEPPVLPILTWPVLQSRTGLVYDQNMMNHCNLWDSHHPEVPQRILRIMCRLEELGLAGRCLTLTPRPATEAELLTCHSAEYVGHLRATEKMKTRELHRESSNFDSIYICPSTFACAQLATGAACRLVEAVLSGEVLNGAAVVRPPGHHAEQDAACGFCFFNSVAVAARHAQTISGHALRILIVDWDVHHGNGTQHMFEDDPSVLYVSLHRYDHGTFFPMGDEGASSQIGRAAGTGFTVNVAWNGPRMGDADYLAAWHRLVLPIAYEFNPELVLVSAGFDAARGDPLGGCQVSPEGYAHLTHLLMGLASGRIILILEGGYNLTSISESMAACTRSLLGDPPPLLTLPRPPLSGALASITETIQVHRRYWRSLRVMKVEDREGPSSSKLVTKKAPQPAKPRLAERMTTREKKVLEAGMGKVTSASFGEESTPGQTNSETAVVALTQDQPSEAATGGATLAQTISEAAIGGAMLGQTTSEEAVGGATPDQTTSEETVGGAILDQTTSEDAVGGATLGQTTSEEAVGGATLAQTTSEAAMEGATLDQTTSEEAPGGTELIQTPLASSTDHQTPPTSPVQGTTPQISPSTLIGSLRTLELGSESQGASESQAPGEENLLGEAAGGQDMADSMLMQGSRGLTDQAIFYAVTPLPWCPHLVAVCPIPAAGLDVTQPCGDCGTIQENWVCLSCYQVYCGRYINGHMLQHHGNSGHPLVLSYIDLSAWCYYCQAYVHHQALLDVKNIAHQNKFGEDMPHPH
Test: HDAC 6 activity at fixed concentration (Table 2)
Assay type: biochemical
Set-up: unit not given here
Details: compound at 50 nM
property measured: HDAC 6 at 50 nM

1. Cn1ccc2cc(-c3ccc4c(c3)CCC(C(=O)NO)O4)ccc21 (stereo not shown) = 44
2. O=C(NCc1cccc(S(F)(F)(F)(F)F)c1)Nc1cccc2c1OC(C(=O)NO)CC2 (stereo not shown) = 34
3. O=C(Nc1ccc2c(c1)CCC(C(=O)NO)O2)OCc1ccccc1Cl (stereo not shown) = 32
4. O=C(Nc1cccc2c1O[C@H](C(=O)NO)CC2)OCc1ccc(Cl)cc1 = 32
